- experimentalTarget: HLA-A*6801 (purified HLA class I molecule) (human)
- condition: remark: other sources report otherwise
pIC50: −log10 of the molar value.
quantityName: pIC50

Given item AVCTRGVAK (modifications not checked) [Peptide 1090.23 (HCV LORF 1183, …)] , the value recorded as its pIC50 is < 4.52
